- PROCEDURE_TEXT: CCTE_Shafer_MEA_dev_active_electrodes_number: CCTE's Neural Network Formation Assay for Number of Active Electrodes, Shafer Lab (AID 2284040)
- Description: CCTE_Shafer_MEA_dev assay is conducted using Axion Biosystems 48 well microelectrode array (MEA) plates and Maestro recording system. Each well of the MEA plate contains a grid of 16 microelectrodes embedded in the culture surface. Electrically active cells, such as neurons, can be cultured over the electrodes, and electrical activity in these cells can be recorded extracellularly. […]
Results filed as inconclusive are left out. Active and inactive are the calls of the source. How the source made its calls: active means hit-call score of the fitted dose curve at least 0.9, where 1 is the maximum; inconclusive means response in the unintended direction; inactive means score below 0.9.
// allowed return values: active, inactive

Recorded results for 5 compounds are shown here.
Nc1ccn([C@@H]2O[C@H](CO)[C@@H](O)C2O)c(=O)n1 (stereo partly specified) | active
O=C(O)C(F)(F)OC(F)(F)C(F)(F)OC(F)(F)C(F)(F)OC(F)(F)C(F)(F)C(F)(F)C(F)(F)F | inactive
NC(C(F)(F)F)C(F)(F)F | inactive
CN(Cc1cnc2nc(N)nc(N)c2n1)c1ccc(C(=O)N[C@@H](CCC(=O)O)C(=O)O)cc1 | active
COC(=O)C(F)(F)C(F)(F)C(F)(F)F | inactive

Just curious, what result did CC(C)c1c(C(=O)Nc2ccccc2)c(-c2ccccc2)c(-c2ccc(F)cc2)n1CC[C@@H](O)C[C@@H](O)CC(=O)O get here?
active

Just curious, what result did FCOC(C(F)(F)F)C(F)(F)F get here?
inactive

Just curious, what result did CN(C)CCOC(c1ccccc1)c1ccccc1 get here?
active

Just curious, what result did O=C(CC(=O)C(F)(F)C(F)(F)C(F)(F)F)c1cccs1 get here?
active

Just curious, what result did O=C1NS(=O)(=O)c2ccccc21 get here?
inactive

Just curious, what result did O=C(F)C(F)(F)C(F)(F)C(F)(F)C(=O)F get here?
inactive

====

- PROCEDURE_TEXT: ATG_SREBP_CIS: Attagene CIS-FACTORIAL HepG2 Assay for human Sterol Regulatory Element Binding (SREBP) (AID 2282962)
- RUN_PARAMETERS: HepG2 Attagene cis-factorial SREBP reporter, mRNA; actives raise or lower the signal
Calls of active or inactive are those of the source. Rule for the calls: active = hit-call score of the fitted dose curve at least 0.9, where 1 is the maximum; inactive = score below 0.9.
// allowed return values: 1 (yes) (active), 0 (no) (inactive)

O=S(=O)(O)C(F)(F)C(F)(F)C(F)(F)C(F)(F)C(F)(F)C(F)(F)C(F)(F)C(F)(F)C(F)(F)C(F)(F)F | 0 (no)

Just curious, what result did O=C(O)CCC(F)(F)C(F)(F)C(F)(F)C(F)(F)C(F)(F)F get here?
0 (no)

Just curious, what result did C[C@]12CC[C@@H]3c4ccc(O)cc4CC[C@H]3[C@@H]1CC[C@@H]2OC(=O)CCC1CCCC1 get here?
0 (no)

Just curious, what result did CCC(=O)O get here?
0 (no)

Just curious, what result did CCCCCCCCCCCC[N+](C)(C)CCCCCCCCCCCC get here?
0 (no)

Just curious, what result did CCOC(C)=O get here?
0 (no)

====

- PROCEDURE_TEXT: CEETOX_H295R_ESTRONE: CeeTox H295R High-throughput Steroidogenesis Assay for Estrone (AID 2283441);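 further: estrone secreted into medium measured by LC-MS/MS after dansyl derivatization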
- RUN_PARAMETERS: actives raise or lower the signal
- Experimental: CEETOX_H295R is a cell-based, multiplexed-readout assay that uses H295R, a human adrenal gland cell line, with measurements taken at 48 hours after chemical dosing in a 96-well plate.CEETOX_H295R_ESTRONE is one of 23 assay component(s) measured or calculated from the CEETOX_H295R assay. […] This assay endpoint, CEETOX_H295R_ESTRONE, was analyzed with bidirectional fitting relative to DMSO as the negative control and baseline of activity. […]
Calls of active or inactive are those of the source. Rule for the calls: active = hit-call score of the fitted dose curve at least 0.9, where 1 is the maximum; inactive = score below 0.9.
// allowed return values: 1.0 for active, 0.0 for inactive

Recorded results for 6 compounds are shown here.
Oc1cc2ccccc2cc1O | 0.0
Clc1ccc(Nc2nnc(Cc3ccncc3)c3ccccc23)cc1 | 1.0
COc1cc([N+](=O)[O-])ccc1N | 0.0
CCCCCc1ccc(O)cc1 | 0.0
Cc1cccc2c1ccc1ccccc12 | 0.0
CC(C)CCOCCC(C)C | 0.0

Just curious, what result did O=C(NCc1ncc(C(F)(F)F)cc1Cl)c1c(Cl)cccc1Cl get here?
0.0

====

- PROCEDURE_TEXT: Tanguay_ZF_120hpf_YSE_legacy: (Legacy) Oregon State University Tanguay Lab 120 Hour Post-fertilization zebrafish Assay for Yolk Sac Edema (AID 2283634)
- Procedure: Tanguay_ZF_120hpf_legacy is a whole embryo, multiplexed endpoint assay using zebrafish larvae exposed for 120 hours post fertilization on a 96-well plate.Tanguay_ZF_120hpf_YSE_legacy is one of one assay component(s) measured or calculated from the Tanguay_ZF_120hpf_legacy assay. […] This assay endpoint, Tanguay_ZF_120hpf_YSE_legacy, was analyzed in the positive analysis fitting direction relative to DMSO as the negative control and baseline of activity. […]
Inconclusive results are not listed. Activity calls are given as the source filed them. How the source made its calls: active means hit-call score of the fitted dose curve at least 0.9, where 1 is the maximum; inconclusive means response in the unintended direction; inactive means score below 0.9.
// allowed return values: T for active, F for inactive

Recorded results for 5 compounds are shown here.
CN(C)CCOC(c1ccccc1)c1ccccc1 | T
CCC(C)c1ccccc1O (stereo unspecified) | F
Cc1[nH]nc2c1N=C(c1ccccc1Cl)c1cc([N+](=O)[O-])ccc1N2 | F
O=C(c1ccccc1)c1ccccc1 | F
CCCCCCCCCCCCCCC | F

Just curious, what result did OCC(CO)(CBr)CBr get here?
F

Just curious, what result did N=C(N)c1ccc(OCCCCCOc2ccc(C(=N)N)cc2)cc1 get here?
F

Just curious, what result did O=C1NS(=O)(=O)c2ccccc21 get here?
F

====

- Read-out: urokinase plasminogen activator (uPA), PLAU (gene 5328)
- PROCEDURE_TEXT: BSK_BE3C_uPA: BioMAP Diversity Plus: BE3C Assay for urokinase plasminogen activator (uPA) Biomarker Activity (AID 2283038)
- RUN_PARAMETERS: primary human bronchial epithelial cells; actives raise or lower the signal
Active and inactive are the calls of the source. Rule for the calls: active = hit-call score of the fitted dose curve at least 0.9, where 1 is the maximum; inactive = score below 0.9.
// allowed return values: Y = active, N = inactive

Recorded results for 5 compounds are shown here.
Oc1cc2ccccc2cc1O | N
N=C(N)c1ccc(OCCCCCOc2ccc(C(=N)N)cc2)cc1 | Y
CCOC(=O)CN[C@@H](C(=O)N1CC[C@H]1C(=O)NCc1ccc(/C(N)=N/O)cc1)C1CCCCC1 | N
C=CC(=O)OCCC(F)(F)C(F)(F)C(F)(F)C(F)(F)C(F)(F)C(F)(F)C(F)(F)C(F)(F)F | N
NC(=NCCCCCCN=C(N)/N=C(\N)Nc1ccc(Cl)cc1)/N=C(\N)Nc1ccc(Cl)cc1 | Y

Okay, next one:
Just curious, what result did CN(C)CCOC(c1ccccc1)c1ccccc1 get here?
N

====

- TARGET_UNDER_TEST: Bile acid receptor (Homo sapiens)
- PROCEDURE_TEXT: ATG_IR1_CIS: Attagene CIS-FACTORIAL HepG2 Assay for human Nuclear Receptor Subfamily 1 Group H Member 4 (NR1H4), IR1 submotif (AID 2282946)
- RUN_PARAMETERS: IR1 reporter transcription, actives raise or lower the signal
- Protocol: ATG_CIS is a cell-based, multiplexed-readout assay that uses HepG2, a human liver cell line, with measurements taken at 24 hours after chemical dosing in a 24-well plate.ATG_IR1_CIS is one of 52 assay component(s) measured or calculated from the ATG_CIS assay. […] This assay endpoint, ATG_IR1_CIS, was analyzed with bidirectional fitting relative to DMSO as the negative control and baseline of activity. […]
Active and inactive are the calls of the source. Rule for the calls: active = hit-call score of the fitted dose curve at least 0.9, where 1 is the maximum; inactive = score below 0.9.
TEST_READOUT: outcome

CCO[Si](C)(C)OCC | inactive
C=CC(=C)CC/C=C(\C)CCC=C(C)C | inactive
CCc1cccc(CC)c1N(COC)C(=O)CS(=O)(=O)O | inactive

====

- Read-out: Human Leukocyte Antigen - DR isotype (HLADR), HLA-DRA (gene 3122)
- PROCEDURE_TEXT: BSK_3C_HLADR: BioMAP Diversity Plus: 3C Assay for Human Leukocyte Antigen - DR isotype (HLADR) Biomarker Activity (AID 2283019)
- RUN_PARAMETERS: primary human endothelial cells (HUVEC); actives raise or lower the signal
Calls of active or inactive are those of the source. Rule for the calls: active = hit-call score of the fitted dose curve at least 0.9, where 1 is the maximum; inactive = score below 0.9.
// allowed return values: Y (active), N (inactive)

CN(Cc1cnc2nc(N)nc(N)c2n1)c1ccc(C(=O)N[C@@H](CCC(=O)O)C(=O)O)cc1 | N
O=C(O)CCC(F)(F)C(F)(F)C(F)(F)C(F)(F)C(F)(F)F | N
CCOC(=O)CN[C@@H](C(=O)N1CC[C@H]1C(=O)NCc1ccc(/C(N)=N/O)cc1)C1CCCCC1 | N
CCC(C)c1ccccc1O (stereo not given) | N
CN(C)c1ccc(C(=C2C=CC(=[N+](C)C)C=C2)c2ccccc2)cc1 | Y
O=C1c2ccc(O)c(O)c2C(=O)c2c(O)ccc(O)c21 | N

Just curious, what result did O=C(c1ccccc1)c1ccccc1 get here?
N

Just curious, what result did CC[N+](CC)(CC)Cc1ccccc1 get here?
N

Just curious, what result did NC(=NCCCCCCN=C(N)/N=C(\N)Nc1ccc(Cl)cc1)/N=C(\N)Nc1ccc(Cl)cc1 get here?
Y

Just curious, what result did O=C1OC2(c3ccccc31)c1cc(I)c(O)c(I)c1Oc1c2cc(I)c(O)c1I get here?
Y

Just curious, what result did CCCCC(CC)C(=O)O (stereo not given) get here?
N

Just curious, what result did O=P(O)(O)CCC(F)(F)C(F)(F)C(F)(F)C(F)(F)C(F)(F)C(F)(F)C(F)(F)C(F)(F)F get here?
N

Just curious, what result did CCCCC=O get here?
N

Just curious, what result did CCCCc1oc2ccccc2c1C(=O)c1cc(I)c(OCCN(CC)CC)c(I)c1 get here?
Y

Just curious, what result did N=C(N)c1ccc(OCCCCCOc2ccc(C(=N)N)cc2)cc1 get here?
Y

Just curious, what result did CCCCCc1ccc(O)cc1 get here?
Y

Just curious, what result did O=S(=O)(O)C(F)(F)C(F)(F)C(F)(F)C(F)(F)C(F)(F)C(F)(F)C(F)(F)C(F)(F)C(F)(F)C(F)(F)F get here?
N

Just curious, what result did O=C(CCCN1CCC(O)(c2ccc(Cl)cc2)CC1)c1ccc(F)cc1 get here?
N

Just curious, what result did OCCN1CN(CCO)CN(CCO)C1 get here?
Y

Just curious, what result did Cc1[nH]nc2c1N=C(c1ccccc1Cl)c1cc([N+](=O)[O-])ccc1N2 get here?
Y

Just curious, what result did CC(C)(C)c1ccc(O)c(O)c1 get here?
Y

Just curious, what result did Cc1ccc(C(=O)c2ccccc2)cc1 get here?
Y

Just curious, what result did O=C(O)CCC(F)(F)C(F)(F)C(F)(F)C(F)(F)C(F)(F)C(F)(F)F get here?
N

Just curious, what result did OCC(F)(F)C(F)(F)C(F)(F)C(F)(F)C(F)(F)C(F)(F)C(F)(F)C(F)(F)C(F)(F)C(F)(F)C(F)(F)F get here?
N

Just curious, what result did O=P(O)(O)CCC(F)(F)C(F)(F)C(F)(F)C(F)(F)C(F)(F)C(F)(F)F get here?
N

Just curious, what result did C=COC(=O)C(C)(C)CCCCCC get here?
Y

Just curious, what result did C=CC(C)(CCC=C(C)C)OC(C)=O (stereo not given) get here?
Y

Just curious, what result did COc1cc(OC)nc(NC(=O)NS(=O)(=O)Nc2ccccc2C(=O)N(C)C)n1 get here?
N

Just curious, what result did Cc1cccc2c1ccc1ccccc12 get here?
Y

Just curious, what result did COC1=CC(=O)C[C@@H](C)[C@]12Oc1c(Cl)c(OC)cc(OC)c1C2=O get here?
N
